method_notes: Single dose PK profile in Colon-26 tumor bearing mice
Format: in vivo
condition_notes: female, mouse, po, 100 mg/kg; plasma; 100 mpk p.o.; 2nd of two values in cell; read-out: Cmax
recorded_metric: Cmax (ng/mL)

• CNS(=O)(=O)Nc1cccc(Cc2c(CN(C)C)c3ccc(OC(=O)N(C)C)cc3oc2=O)c1F = 14200

---

system: CYP450 2C19 (Homo sapiens, UniProt P33261)
Sequence (P33261 whole entry): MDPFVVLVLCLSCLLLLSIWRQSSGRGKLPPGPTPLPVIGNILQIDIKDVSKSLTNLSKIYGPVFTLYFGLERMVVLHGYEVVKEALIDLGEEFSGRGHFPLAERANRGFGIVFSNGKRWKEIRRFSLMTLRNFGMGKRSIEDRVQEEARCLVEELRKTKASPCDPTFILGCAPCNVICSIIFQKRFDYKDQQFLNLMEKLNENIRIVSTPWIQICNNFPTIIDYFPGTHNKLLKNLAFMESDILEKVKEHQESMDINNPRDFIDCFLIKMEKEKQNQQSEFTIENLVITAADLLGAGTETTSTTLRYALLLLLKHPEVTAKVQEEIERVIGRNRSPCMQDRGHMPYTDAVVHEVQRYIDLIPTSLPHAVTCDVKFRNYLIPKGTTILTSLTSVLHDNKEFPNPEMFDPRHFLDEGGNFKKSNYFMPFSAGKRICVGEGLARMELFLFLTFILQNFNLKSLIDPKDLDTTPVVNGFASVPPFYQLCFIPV
method_notes: CYP450 Panel
Assay type: in vitro ADME
condition_notes: 10 μM; substrate mephenytoin; in % (unit assumed)
Examples of molecules with documented CYP450 Panel 2C19 follow.
recorded_metric: CYP450 Panel 2C19

* COc1ccc2[nH]c([S+]([O-])Cc3ncc(C)c(OC)c3C)nc2c1 (centres unmarked) | 61.6
* CNS(=O)(=O)Nc1cccc(Cc2c(CN(C)C)c3ccc(OC(=O)N(C)C)cc3oc2=O)c1F | 8.2
* CNS(=O)(=O)Nc1cccc(Cc2c(C)c3ccc(OC(=O)N(C)C)cc3oc2=O)c1F [Reference 7] | 11.6
* CNS(=O)(=O)Nc1nccc(Cc2c(C)c3ccc(Oc4ncccn4)cc3oc2=O)c1F [Reference 2] | −0.9
* Cn1cnc2c(F)c(Nc3ccc(Br)cc3Cl)c(C(=O)NOCCO)cc21 [Reference 1, Selumetinib] | 13.9
